B1: Osa-1-4 twister ribozyme (parent)
chain: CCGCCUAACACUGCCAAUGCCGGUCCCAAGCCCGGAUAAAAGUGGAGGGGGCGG

Variants of: B1
assay_details: self-cleavage, relative activity (ratio to wild type); higher = more cleavage; co-transcriptional
measured_parameter: self-cleavage

C27U C9A | 0.02
C14A C20A | 0.12
A38G C25U | 0.78
A29U G45C | 0.03
A7U G54U | 0.11
C11A U12G | 0.09
G23A G51C | 0.07
A46C G13A | 0.02
G53A U12C | 0.37
C32G C33A | 0.07
A17U G48C | 0.13
G49U G54A | 0.1
C26U C52U | 0.98
C15G C26A | 0.04
A38U G30A | 0.04
C27U G53A | 0.12
A46C G42C | 0.04
A17G G48U | 0.12
G19A | 0.99
G13C U43G | 0.03
C20U G51C | 0.11
A46G U43G | 0.12
